# Subject of test: T1, human soluble IL-6R, recombinant (human, UniProt P08887 20-358)
# T1 construct: also called human IL6-R; bio-IL-6R
# T1 sequence (looked up): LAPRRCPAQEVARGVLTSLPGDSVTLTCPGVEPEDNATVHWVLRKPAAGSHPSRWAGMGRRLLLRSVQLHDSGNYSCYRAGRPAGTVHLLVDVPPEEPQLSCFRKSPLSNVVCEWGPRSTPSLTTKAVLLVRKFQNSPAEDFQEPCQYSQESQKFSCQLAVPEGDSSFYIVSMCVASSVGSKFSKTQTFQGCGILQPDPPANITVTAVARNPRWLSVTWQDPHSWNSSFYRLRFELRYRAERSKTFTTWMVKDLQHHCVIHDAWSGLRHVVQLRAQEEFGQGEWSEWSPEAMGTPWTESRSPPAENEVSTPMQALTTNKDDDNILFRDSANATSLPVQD
# Measurement description: Biacore, periplasmic extract

{"Binder": "IL6RPMP103C3 (VHH, family 14; periplasmic extract) VHH: EVQLVESGGGLVQPGGSMRLSCAATGAIFSISTMGWYRQAPGAQREFVAGVGLDGTPNYADSVKGRFTISRDNTKNTVSLQMENLKPEDTGVYYCNIDEGMDYDGNFYDRWGQGTQVTVSS", "binding result": "no binding"}
{"Binder": "IL6RPMP108E9 (VHH, family 15; periplasmic extract) VHH: EVQLVESGGGLVQAGGSLRLSCAFSRRSFGNFPMGWFRQRPGEEREYVAVISWNNNYIHYRDSVKGRFTASRDTSENRMYLQMNGLKPEDTAVYYCAARTKDNTLFTPAEEYDYWGQGTQVTVSS", "binding result": "no binding"}
{"Binder": "IL6RPMP108C9 (VHH, family 16; periplasmic extract) VHH: EVQLVESGGGLVQAGGSLRLSCAASGRTYAMAWFRQAPGKEREFVAAISIVTDYADSVKGRFNISRDNRENTVYLQMNSLKPEDTAVYYCAANTYYSGAYFPRGHEWYEYWGQGTQVTVSS", "binding result": "no binding"}
{"Binder": "IL6RPMP103F2 (VHH, family 26; periplasmic extract) VHH: EVQLVESGGGLVQAGGSLRLSCVASGHTSDTYIMAWFRQAPGKEREFVASILWDGSITYYADSVKDRFTISRDISRKTLYLQMNSLRPEDTATYTCARGIYFSRRYVDPGIYGTWGQGTQVTVSS", "binding result": "no binding"}

The measurements presented in this section are drawn from patent US20120171209A1.
